- targetOrSystem: Amine oxidase [flavin-containing] A (Homo sapiens)
- Sequence (P21397 whole entry): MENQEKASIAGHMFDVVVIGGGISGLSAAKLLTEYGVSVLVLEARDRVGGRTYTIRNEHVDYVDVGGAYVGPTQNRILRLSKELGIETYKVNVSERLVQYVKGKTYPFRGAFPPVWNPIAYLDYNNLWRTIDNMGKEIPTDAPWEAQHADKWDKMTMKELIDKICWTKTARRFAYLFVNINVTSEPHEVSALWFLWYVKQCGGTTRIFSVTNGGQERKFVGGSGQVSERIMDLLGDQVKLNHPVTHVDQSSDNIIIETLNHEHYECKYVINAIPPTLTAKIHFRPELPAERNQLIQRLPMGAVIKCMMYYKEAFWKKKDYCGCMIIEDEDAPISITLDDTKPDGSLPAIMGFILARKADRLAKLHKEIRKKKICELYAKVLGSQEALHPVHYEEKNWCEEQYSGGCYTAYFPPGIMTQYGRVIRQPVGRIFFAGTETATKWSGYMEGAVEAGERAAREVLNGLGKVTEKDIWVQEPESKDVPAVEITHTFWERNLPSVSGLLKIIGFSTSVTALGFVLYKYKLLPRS
- protocolDescription: Inhibition of recombinant human MAO-A using p-tyramine as substrate incubated for 15 mins followed by substrate addition and measured for 15 to 20 mins by Amplex Red assay
quantityName: pIC50
Please note pIC50 is a logarithmic value: minus log10 of concentration in mol/L. Answer with that number alone.

Entry Cc1c(Cl)c(=O)oc2cc(OCCCSC(=S)N3C(C)CCCC3C)ccc12 (stereo unspecified) under Amine oxidase [flavin-containing] A (Homo sapiens) had pIC50 of 5.23

----------
- targetOrSystem: Amine oxidase [flavin-containing] B (Homo sapiens, UniProt P27338)
- Sequence (P27338 whole entry): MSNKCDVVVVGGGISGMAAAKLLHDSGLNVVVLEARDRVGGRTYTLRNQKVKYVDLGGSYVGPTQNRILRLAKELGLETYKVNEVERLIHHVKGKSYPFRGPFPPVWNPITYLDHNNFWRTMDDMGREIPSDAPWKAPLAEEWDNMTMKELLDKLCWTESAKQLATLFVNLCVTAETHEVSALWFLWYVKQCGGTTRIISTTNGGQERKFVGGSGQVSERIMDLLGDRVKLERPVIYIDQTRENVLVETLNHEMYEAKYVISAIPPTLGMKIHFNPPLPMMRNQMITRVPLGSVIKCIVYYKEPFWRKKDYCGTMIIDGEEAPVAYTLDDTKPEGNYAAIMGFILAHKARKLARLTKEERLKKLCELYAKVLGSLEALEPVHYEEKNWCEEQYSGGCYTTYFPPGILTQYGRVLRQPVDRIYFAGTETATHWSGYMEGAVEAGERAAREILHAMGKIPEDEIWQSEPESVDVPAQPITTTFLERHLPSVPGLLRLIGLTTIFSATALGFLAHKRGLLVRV
- protocolDescription: Inhibition of human MAO-B assessed as inhibition constant using benzylamine as substrate
quantityName: pKi
Answer as the number alone; pKi is minus log10 of concentration in mol/L.

// sample O=C(/C=C/c1ccc(O)cc1)CC(=O)/C=C/c1ccc(O)cc1 , its pKi was 6.10

----------
- targetOrSystem: UniProtKB P27338
- Sequence (P27338 whole entry): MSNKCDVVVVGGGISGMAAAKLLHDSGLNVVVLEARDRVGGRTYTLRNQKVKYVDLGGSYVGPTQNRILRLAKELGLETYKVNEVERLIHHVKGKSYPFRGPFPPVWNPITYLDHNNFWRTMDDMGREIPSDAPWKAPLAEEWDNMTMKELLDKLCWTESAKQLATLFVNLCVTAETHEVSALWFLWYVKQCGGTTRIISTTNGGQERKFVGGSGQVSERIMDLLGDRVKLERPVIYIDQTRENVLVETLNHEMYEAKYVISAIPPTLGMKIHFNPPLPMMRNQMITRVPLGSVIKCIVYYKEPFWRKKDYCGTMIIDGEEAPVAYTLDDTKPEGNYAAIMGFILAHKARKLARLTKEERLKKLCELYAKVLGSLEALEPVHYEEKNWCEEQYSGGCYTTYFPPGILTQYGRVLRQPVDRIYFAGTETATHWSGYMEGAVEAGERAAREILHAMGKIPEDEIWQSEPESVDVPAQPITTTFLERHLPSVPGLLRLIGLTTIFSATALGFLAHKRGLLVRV
- protocolDescription: Inhibition of recombinant human MAO-B using p-tyramine as substrate preincubated for 15 mins followed by substrate addition and measured after 20 mins by fluorescence assay
quantityName: IC50

Measured IC50 of Cc1c(C)c2c(c(C)c1O)CCC(C)(C(=O)NCCC1CCN(Cc3ccccc3F)CC1)O2 (stereo unspecified) : 4.3 µM

----------
- targetOrSystem: Amine oxidase [flavin-containing] B (Homo sapiens, UniProt P27338)
- Sequence (P27338 whole entry): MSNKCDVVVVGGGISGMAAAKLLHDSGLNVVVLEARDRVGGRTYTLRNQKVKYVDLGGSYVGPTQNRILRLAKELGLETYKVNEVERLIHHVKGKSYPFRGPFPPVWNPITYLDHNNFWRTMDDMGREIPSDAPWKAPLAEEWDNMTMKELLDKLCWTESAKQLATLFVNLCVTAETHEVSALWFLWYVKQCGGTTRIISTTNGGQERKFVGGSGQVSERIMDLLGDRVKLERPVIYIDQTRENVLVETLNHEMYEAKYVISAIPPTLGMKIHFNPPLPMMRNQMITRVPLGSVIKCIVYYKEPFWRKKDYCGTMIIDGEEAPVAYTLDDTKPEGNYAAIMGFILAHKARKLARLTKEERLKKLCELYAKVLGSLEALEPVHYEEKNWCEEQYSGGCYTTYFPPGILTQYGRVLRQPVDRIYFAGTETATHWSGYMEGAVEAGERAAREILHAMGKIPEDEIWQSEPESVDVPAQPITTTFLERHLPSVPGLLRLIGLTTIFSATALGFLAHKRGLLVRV
- protocolDescription: Inhibition of human MAO-B using tyramine as substrate by amplex red assay
quantityName: pIC50
Worth noting: pIC50 values are minus log10 of concentrations stated in mol/L.

Cc1ccc(C2=NO[C@H](c3ccc(Cl)c(Cl)c3)C2)cc1 : 4.96

Next compound, pIC50 to be filled in.
Cc1ccc(C2=NOC(c3ccc(Cl)c(Cl)c3)C2)cc1 (configuration not stated) yielded pIC50 of 7.92

----------
- targetOrSystem: Amine oxidase [flavin-containing] B (Homo sapiens, UniProt P27338)
- protocolDescription: Inhibition of recombinant human MAO-B using tyramine hydrochloride as substrate preincubated for 30 mins followed by substrate addition and measured after 30 mins by fluorescence assay
quantityName: IC50
# output: numeric value plus its unit

Short answer on Amine oxidase [flavin-containing] B (Homo sapiens, UniProt P27338) for CC1CCCCN1c1ccc(/C=N/Nc2ccccc2)cc1 (stereo unspecified) , IC50: 342 nM

----------
- targetOrSystem: Amine oxidase [flavin-containing] A (Homo sapiens, UniProt P21397)
- Sequence (P21397 whole entry): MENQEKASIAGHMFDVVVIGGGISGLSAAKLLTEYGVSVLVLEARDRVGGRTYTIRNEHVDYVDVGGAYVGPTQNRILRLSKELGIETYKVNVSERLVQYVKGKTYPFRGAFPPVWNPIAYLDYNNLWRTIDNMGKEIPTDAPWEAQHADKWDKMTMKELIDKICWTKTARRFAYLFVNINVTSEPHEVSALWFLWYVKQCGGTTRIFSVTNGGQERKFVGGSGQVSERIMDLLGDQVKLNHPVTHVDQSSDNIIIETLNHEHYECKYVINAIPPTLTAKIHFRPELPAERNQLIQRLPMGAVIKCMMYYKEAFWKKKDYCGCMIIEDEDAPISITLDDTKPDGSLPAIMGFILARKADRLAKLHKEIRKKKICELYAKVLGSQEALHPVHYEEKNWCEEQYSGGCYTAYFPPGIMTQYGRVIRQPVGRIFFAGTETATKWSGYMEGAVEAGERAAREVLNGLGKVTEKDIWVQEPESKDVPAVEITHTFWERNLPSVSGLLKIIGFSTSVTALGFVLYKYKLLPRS
- protocolDescription: Inhibition of MAO-A (unknown origin) using kynuramine as substrate preincubated for 10 mins followed by substrate addition and measured after 20 mins by fluorescence microplate reader assay
quantityName: pIC50
By convention, pIC50 is the negative base-10 log of a molar concentration.

// recorded pIC50 for CCOc1ccc([N+](=O)[O-])c(N/N=C/c2ccc(O)cc2)n1 : 5.20

----------
- targetOrSystem: Amine oxidase [flavin-containing] B (Homo sapiens)
- protocolDescription: Inhibition of MAO-B (unknown origin) using tyramine hydrochloride as substrate incubated for 30 mins followed by substrate addition and measured after 5 mins by spectrophotometric assay
quantityName: pIC50
Notebook: values listed as pIC50 are -log10 of the concentration (mol/L).

Case CN1CCN(c2ccc(/C=N/Nc3ccccc3)cc2)CC1 , Amine oxidase [flavin-containing] B (Homo sapiens), pIC50 recorded as 7.55

----------
- targetOrSystem: Amine oxidase [flavin-containing] B (Rattus norvegicus)
- Sequence (P19643 whole entry): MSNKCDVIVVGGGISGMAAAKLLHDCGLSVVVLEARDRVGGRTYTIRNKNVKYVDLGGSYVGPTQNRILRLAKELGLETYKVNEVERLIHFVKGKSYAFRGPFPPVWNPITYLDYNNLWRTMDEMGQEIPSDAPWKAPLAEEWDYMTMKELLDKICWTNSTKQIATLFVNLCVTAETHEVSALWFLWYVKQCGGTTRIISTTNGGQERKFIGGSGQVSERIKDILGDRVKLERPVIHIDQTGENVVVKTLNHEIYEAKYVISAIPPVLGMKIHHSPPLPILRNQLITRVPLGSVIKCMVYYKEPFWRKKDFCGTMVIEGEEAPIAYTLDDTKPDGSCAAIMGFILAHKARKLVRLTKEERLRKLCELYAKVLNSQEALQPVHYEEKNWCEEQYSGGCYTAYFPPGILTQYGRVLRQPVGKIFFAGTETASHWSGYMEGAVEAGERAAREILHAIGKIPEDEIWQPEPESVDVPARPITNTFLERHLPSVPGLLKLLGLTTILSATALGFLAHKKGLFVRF
- protocolDescription: Inhibition of rat brain mitochondria MAO-B using benzylamine as substrate incubated for 30 mins by microplate reader assay
quantityName: pIC50
Scale: pIC50 equals -log10([C]), with [C] in mol/L.

What the record says about O=C1Nc2ccc(Cl)cc2/C1=N\NC(=O)c1ccc2c(c1)OCO2 : pIC50 is 7.47
